Test system: L1210 leukemia ip in BDF1 mice, survival T/C
Assay: NCI In Vivo Anticancer Drug Screen. Data for tumor model L1210 Leukemia (intraperitoneal) in B6D2F1 (BDF1) mice
Details: endpoint: mean survival time; dose: 100.0 mg/kg/injection; schedule: Q01DX001 (ip); vehicle: saline; higher = longer survival
Toxic doses and inconclusive results are not listed.
Answer each item with its documented T/C.

Take a look at these entries with their results.
compound	T/C
CCCCCCCCc1cc2c(c3c1CCCC3)CCC1CCCCC21 (configuration not stated)	104 % of control
CC(=O)c1c2ccccc2cc2ccccc12	106 % of control
CS(=O)(=O)NC[C@H](Cl)[C@@H](Cl)CNS(C)(=O)=O	100 % of control

// input: 2 compounds below; output: T/C for each
1. CN(C)C1=C(Cl)C(=O)c2ccccc2C1=O
2. [O-][N+](CCO)(CCO)Cc1ccccc1

## Result
1. 100 % of control
2. 103 % of control

// input: 2 compounds below; output: T/C for each
1. CCCNCCCSCc1ccccc1
2. O=C(NCCCl)NC1C(O)CCCC1O (configuration not stated)

## Result
103 % of control
103 % of control

----------
System: L1210 leukemia ip in BDF1 mice, survival T/C
Experiment: NCI In Vivo Anticancer Drug Screen. Data for tumor model L1210 Leukemia (intraperitoneal) in B6D2F1 (BDF1) mice
Conditions: endpoint: mean survival time; dose: 50.0 mg/kg/injection; schedule: Q01DX009 (ip); vehicle: saline; higher = longer survival
Toxic doses and inconclusive results are not listed.
measuredQuantity: T/C

Take a look at these entries with their results.
compound	T/C
COC1=C(Br)[C@H](O)[C@](O)(CC#N)C=C1Br	107 % of control
CC(=O)N(CCCc1ccccc1)C(C)(C)C	104 % of control
NCC(S)c1ccc(Cl)cc1 (centres undefined)	97 % of control

Next, consider the following compound.
## Task API: value(readout=T/C, system=L1210 leukemia ip in BDF1 mice, survival T/C) for record NNC(=O)Cc1ccc([N+](=O)[O-])cc1
## Result 94 % of control

----------
Tested on: L1210 leukemia ip in BDF1 mice, survival T/C
Assay: NCI In Vivo Anticancer Drug Screen. Data for tumor model L1210 Leukemia (intraperitoneal) in B6D2F1 (BDF1) mice
Settings: endpoint: mean survival time; dose: 50.0 mg/kg/injection; schedule: Q01DX009 (ip); vehicle: saline with Tween-80; higher = longer survival
Inconclusive results and toxic doses are left out.
measuredQuantity: T/C

compound	measuredQuantity	reported
c1ccc2c(c1)nnn2-c1ccncc1	T/C	92 % of control

// input: 6 compounds below; output: T/C for each
1. Cn1nc2ccccc2n1
2. O=C1CC2CCCCC2O1 (stereo not drawn)
3. ClC1=CC2CCC1C21CC1 (stereo not drawn)
4. CC1(C)COC(CC2CCCCC2)=N1
5. O=C(Nc1ccccc1)Nc1ccccc1
6. Cc1cccc(C)c1NC(=O)OCCOc1ccc(Cl)cc1Cl

## Result
1. 106 % of control
2. 96 % of control
3. 105 % of control
4. 102 % of control
5. 96 % of control
6. 90 % of control

----------
Tested on: L1210 leukemia ip in BDF1 mice, survival T/C
Assay: NCI In Vivo Anticancer Drug Screen. Data for tumor model L1210 Leukemia (intraperitoneal) in B6D2F1 (BDF1) mice
Conditions: endpoint: mean survival time; dose: 200.0 mg/kg/injection; schedule: Q01DX001 (ip); vehicle: Klucel (hydroxypropylcellulose) (HPC); higher = longer survival
Toxic doses and inconclusive results are not listed.
Answer each item with its documented T/C.

compound	T/C
COc1cc(C(=O)O)ccc1OCCNS(C)(=O)=O	102 % of control
Cc1nc2ccccc2c(C)c1-c1c(C)nc2ccccc2c1C	108 % of control
CN(C)C(=O)Nc1nc2cc(Cl)c(Cl)cc2[nH]1	100 % of control
CC(C)CCCCCc1ccc(OCCOc2ccc(C(=O)Nc3ccc(S(=O)(=O)F)cc3[N+](=O)[O-])cc2)cc1	94 % of control
Nc1ccc(CC2=C(Br)CNC(=O)N2)cc1	103 % of control

// input: 5 compounds below; output: T/C for each
1. CC1(C)C2CCC1(C)C(/C=N/NC(N)=O)C2 (stereo not given)
2. CC1(NO)CCCCC1
3. Clc1nc2ccccc2nc1C(Cl)Cl
4. Cc1cc(N(c2c(Cl)c(Cl)c(NS(=O)(=O)c3ccccc3)c(Cl)c2Cl)S(=O)(=O)c2ccccc2)cc(C)c1N
5. CC1(C)CN=C(c2ccc([N+](=O)[O-])cc2)S1

## Result
1. 102 % of control
2. 94 % of control
3. 110 % of control
4. 95 % of control
5. 102 % of control

----------
System: L1210 leukemia ip in BDF1 mice, survival T/C
Assay: NCI In Vivo Anticancer Drug Screen. Data for tumor model L1210 Leukemia (intraperitoneal) in B6D2F1 (BDF1) mice
Details: endpoint: mean survival time; dose: 300.0 mg/kg/injection; schedule: Q01DX001 (ip); vehicle: other; higher = longer survival
Experimental: The antitumor activity of compounds was measured in mice bearing transplantable tumors. Survival or tumor size were measured and the results are expressed as the measurement made in the treated group (T) divided by the measurement made in the vehicle treated control group (C). The tumor model used in this assay is L1210 Leukemia (intraperitoneal) in B6D2F1 (BDF1) mice
Inconclusive results and toxic doses are left out.
measuredQuantity: T/C

// input: 4 compounds below; output: T/C for each
1. O=C(O)C1=C(C2CCCCC2)C(=O)c2ccccc21
2. CC1=CC(C)(C)Nc2cc(N)ccc21
3. CC(=O)C1(O)CCC2C3CCC4=CC(=O)CCC4(C)C3CC(=O)C21C (centres undefined)
4. c1ccc(-c2cnc3nc4ccccc4nc3n2)cc1

## Result
["102 % of control", "91 % of control", "95 % of control", "97 % of control"]

----------
Answer each item with its documented T/C.
Tested on: L1210 leukemia ip in BDF1 mice, survival T/C
Experiment: NCI In Vivo Anticancer Drug Screen. Data for tumor model L1210 Leukemia (intraperitoneal) in B6D2F1 (BDF1) mice
Conditions: endpoint: mean survival time; dose: 100.0 mg/kg/injection; schedule: Q01DX009 (ip); vehicle: Klucel (hydroxypropylcellulose) (HPC); higher = longer survival
Inconclusive results and toxic doses are left out.

Take a look at these entries with their results.
compound	assaySystem	T/C
Cc1ccccc1SC(=O)Nc1ccc([N+](=O)[O-])cc1Cl	L1210 leukemia ip in BDF1 mice, survival T/C	96 % of control
COc1ccc2c(c1O)C13CCN(C)C(C2)C1CCC(O)C3 (configuration not stated)	L1210 leukemia ip in BDF1 mice, survival T/C	95 % of control
CC(=Nc1cccc2ccccc12)c1c(O)cc(C)oc1=O	L1210 leukemia ip in BDF1 mice, survival T/C	100 % of control
CCc1ccccc1NC(=O)Nc1ccc(Cl)c(Cl)c1	L1210 leukemia ip in BDF1 mice, survival T/C	88 % of control
N#Cc1ccc(O)cc1	L1210 leukemia ip in BDF1 mice, survival T/C	99 % of control

// input: 5 compounds below; output: T/C for each
1. COc1ccc2c(ccc3nc(CCC(=O)O)n(C)c(=O)c32)c1
2. CCOC(=O)C(Cc1ccccc1)(NC=O)C(=O)OCC
3. Nc1[nH]c(=O)ncc1-c1ccc(Cl)cc1
4. Cc1noc(C)c1CC1(Cc2c(C)noc2C)C(=O)CCC2(C)CCCC=C21 (configuration not stated)
5. COc1ccc([N+](=O)[O-])cc1NC(=O)Nc1ccc(F)c([N+](=O)[O-])c1

## Result
96 % of control
94 % of control
100 % of control
92 % of control
98 % of control

// input: 2 compounds below; output: T/C for each
1. CC(=O)Nc1cc(C)c(C)cc1[N+](=O)[O-]
2. CC1(C)C2CCC1C(CO)C2 (configuration not stated)

## Result
1: 102 % of control; 2: 94 % of control

----------
Tested on: L1210 leukemia ip in BDF1 mice, survival T/C
Test: NCI In Vivo Anticancer Drug Screen. Data for tumor model L1210 Leukemia (intraperitoneal) in B6D2F1 (BDF1) mice
Details: endpoint: mean survival time; dose: 200.0 mg/kg/injection; schedule: Q04DX002 (ip); vehicle: gum acacia; higher = longer survival
Inconclusive results and toxic doses are left out.
Answer each item with its documented T/C.

Take a look at these entries with their results.
compound	assaySystem	T/C
Clc1ccc(CSSCc2ccc(Cl)cc2Cl)c(Cl)c1	L1210 leukemia ip in BDF1 mice, survival T/C	116 % of control
O=C(Nc1ccccc1)OCC(F)(F)F	L1210 leukemia ip in BDF1 mice, survival T/C	108 % of control
N#CCC(C(=O)c1cccnc1)c1ccccc1 (centres undefined)	L1210 leukemia ip in BDF1 mice, survival T/C	87 % of control

Next, consider the following compound.
## Task API: value(readout=T/C, system=L1210 leukemia ip in BDF1 mice, survival T/C) for record CC(=O)Nc1ccc(/C=C(\C#N)c2ccc([N+](=O)[O-])cc2)cc1
## Result 103 % of control
